# assaySystem: HLA-A02.01 (Homo sapiens, UniProt P04439, D140Y/D185E/D98H/E176V/E277Q/G131W/G231S/I119V/I121R/I166T/I218V/L300P/L318F/N151K/N90K/P208A/P217A/Q86G/Q94H/R138H/R169H/T345S)
# methodSummary: Class I MHC peptide binding affinity (displacement of radiolabeled reference peptide)
# experimentalConditions: allele A02.01; read-out: Observed Affinity (IC50; (nM))
Where a SMILES comes first, the peptide text is derived from it.
Below, each of the molecules is paired with its reported IC50 value.
# output: bare number, implied unit nM

For orientation, consider the following solved cases.
[
  {
    "molecule": "CC[C@H](C)[C@H](NC(=O)[C@@H](NC(=O)[C@H](CC(C)C)NC(=O)[C@@H](NC(=O)[C@@H]1CCCN1C(=O)[C@H](CCCNC(=N)N)NC(=O)[C@H](Cc1c[nH]c2ccccc12)NC(=O)[C@H](CC(N)=O)NC(=O)[C@@H](N)CCSC)[C@@H](C)CC)[C@@H](C)O)C(=O)O (H-MNWRPILTI-OH; N-terminus and C-terminus assumed)",
    "testResult": 516
  },
  {
    "molecule": "CC[C@H](C)[C@H](N)C(=O)N[C@H](C(=O)N[C@@H](C)C(=O)N[C@@H](Cc1ccccc1)C(=O)N[C@@H](Cc1ccccc1)C(=O)N[C@@H](CC(C)C)C(=O)N[C@@H](CC(C)C)C(=O)N[C@@H](CC(=O)O)C(=O)N[C@H](C(=O)O)[C@@H](C)CC)[C@@H](C)O (H-ITAFFLLDI-OH; N-terminus and C-terminus assumed)",
    "testResult": 78.7
  }
]

Consider now this further molecule.
Request: Item CC[C@H](C)[C@H](N)C(=O)N[C@H](C(=O)N[C@@H](C)C(=O)N[C@@H](Cc1ccccc1)C(=O)N[C@@H](Cc1ccccc1)C(=O)N[C@@H](Cc1ccccc1)C(=O)N[C@@H](CS)C(=O)N[C@@H](Cc1c[nH]c2ccccc12)C(=O)N[C@H](C(=O)O)[C@@H](C)CC)[C@@H](C)O (H-ITAFFFCWI-OH; N-terminus and C-terminus assumed) has what recorded IC50?
Response: 7490

* * *

Below, each of the compounds is paired with its reported Stability (T1/2 (h)) value.
# assaySystem: HLA-A02.01 (Homo sapiens, UniProt P04439, D140Y/D185E/D98H/E176V/E277Q/G131W/G231S/I119V/I121R/I166T/I218V/N151K/N90K/P208A/P217A/Q86G/Q94H/R138H/R169H)
# Construct: made in house; host or cells: E. coli
# methodSummary: Class I MHC peptide binding stability (pMHC-I dissociation, 125I-labeled light chain)
# experimentalConditions: allele A02.01
# output: bare number, implied unit h

[
  {
    "compound": "CC[C@H](C)[C@H](NC(=O)[C@H](Cc1ccccc1)NC(=O)[C@H](CCCNC(=N)N)NC(=O)[C@@H]1CCCN1C(=O)[C@H](CC(C)C)NC(=O)[C@@H](N)CO)C(=O)N[C@@H](CC(C)C)C(=O)N[C@@H](CCSC)C(=O)N[C@@H](CCC(=O)O)C(=O)N[C@@H](CC(C)C)C(=O)O",
    "unitOfMeasure": "h",
    "testResult": 0.5
  }
]

Consider now this further compound.
Request: Item CSCC[C@H](NC(=O)[C@@H](NC(=O)[C@H](Cc1ccc(O)cc1)NC(=O)[C@H](C)NC(=O)[C@H](CCSC)NC(=O)[C@@H](NC(=O)[C@@H](N)Cc1ccc(O)cc1)C(C)C)C(C)C)C(=O)N[C@@H](C)C(=O)NCC(=O)O has what recorded Stability (T1/2 (h))?
Response: 2.5
